- Measured target: T1, mouse B7-H4 (recombinant, BLI) (mouse, UniProt Q7TSP5 29-256, limits assumed)
- T1 construct: also called murine B7-H4
- T1 sequence: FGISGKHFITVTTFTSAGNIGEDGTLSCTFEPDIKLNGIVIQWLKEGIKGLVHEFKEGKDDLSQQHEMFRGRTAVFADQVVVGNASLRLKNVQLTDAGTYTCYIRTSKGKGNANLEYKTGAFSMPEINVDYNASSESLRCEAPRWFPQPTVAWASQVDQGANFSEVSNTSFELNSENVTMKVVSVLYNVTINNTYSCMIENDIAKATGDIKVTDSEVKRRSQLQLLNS
- Measurement notes: BLI, antigen on Protein A tips;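 note: Anti-B7-H4 antibodies assessed for affinity toward the B7-H4 extracellular domain using biolayer interferometry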

Binder	kon / M⁻¹ s⁻¹
B7-H4 antibody 20516 (antibody, human IgG1, kappa, V domains shown, human IgG1/kappa) VH: QVQLQESGPGLVKPSETLSLTCTVSGGSIISYYWGWIRQPPGKGLEWIGYIYSSGSTSYNPSLKSRVTISVDTSKNQFSLKLSSVTAADTAVYYCARGSGLYAAPDYGLDVWGQGTTVTVSS VL: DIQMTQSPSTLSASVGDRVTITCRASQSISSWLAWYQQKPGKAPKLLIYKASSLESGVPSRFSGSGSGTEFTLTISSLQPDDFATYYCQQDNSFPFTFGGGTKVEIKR	398000

The reported numbers originate from patent US20240043542A1.
